# Experiment Summary: Novel Modifiers of Survival Motor Neuron (SMN) Protein: Gene Identification via Genome-wide siRNA Screen;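 also: luminescence tracks full-length SMN protein made from the SMN2 reporter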
# Settings: HEK293T SMN2-luciferase reporter, siRNA knockdown, 72 h; actives lie on both sides
In all, about 31,000 sequences went through this assay and about 1,400 (4.5%) were called active.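 The calls were made as follows: active = median seed-adjusted z-score above 1 or below -1; inactive = the rest.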 Only a selection was taken, and actives are over-represented in it overall.
Returns: one label drawn from class 1 = active, class 0 = inactive

Recorded results for 10 sequences are shown here.
1. GGACAGUAGUGUGCAACGATT against LRIT1 | class 0
2. GCAUGGGUUUUAUUAUAUATT against CCL11 | class 0
3. CGCACGCUCUUCAAAUUCUTT against ADRA2A | class 0
4. GGUCUUUAUUCGGAAGCGATT against ZNF525 | class 0
5. GAGAAAUGCUUGGAGUCCATT against FKBPL | class 1
6. GAACAACACGACCAACAGATT against PRKD2 | class 0
7. GGAACGCAGUCAGAUUUGATT against CA5B | class 0
8. GAAUCAGAAUACGUAGGAATT against PCDHA2 | class 0
9. CAAAGGGCUAAGUUCUAAATT against TBC1D5 | class 0
10. GGUAAUGCUUUAUUCCAAATT against ZNF677 | class 0

# lookup: test call for GAAAUUGCCUAUUACUCUUTT against SLC19A2
class 0

What call does the record list for GGAUCGAUAUCAAGAUAUUTT against AVEN ?
class 0

Assay outcome for UGGACAUUCUUGCACCCAATT against CHTF18 : what was it?
class 0

Outcome logged for GUACCUUGAGAAGAAAUUUTT against ACCN1 in this assay:
class 0

What did the test return for GGAAAGCUCUUCGUCUGGATT against IFIT5 ?
class 0

Could you kindly confirm the outcome this assay logged for GGCGAACAGUUCUACAUGUTT against IFT57 ?
class 1

Which outcome was entered for the sequence GUAUACCGAUUGAUAACCATT against BTAF1 in this test?
class 1

Assay result, entry CCUGAACACACCUUACAUATT against RNASE8 — outcome?
class 0
